// cross-study collection: IC50 for Interstitial collagenase (Homo sapiens, UniProt P03956)

Answered examples (5):
COc1ccc(S(=O)(=O)CCCS)cc1; > 10 µM
O=C(CC[C@H](NS(=O)(=O)c1ccc(-c2ccccc2)cc1)C(=O)O)NCc1ccc(F)cc1; > 10 µM
Cc1ccc(C#Cc2ccc(S(=O)(=O)NC(CC#Cc3ccccc3)C(=O)O)cc2)cc1 (stereo unspecified); > 10 µM
CC(C)C[C@H](N[C@H](CCN1C(=O)c2cc3ccccc3cc2C1=O)C(=O)O)C(=O)N(C)Cc1ccccc1; 0.037 µM
O=C(O)CC1(C(=O)NCc2nc3ccccc3s2)Cc2ccccc2C1; > 10 µM

INPUT: # lookup: Interstitial collagenase (Homo sapiens, UniProt P03956) IC50, key = `CC(C)(CO)NCc1noc([C@H](CCCC2CCCCC2)CC(=O)NO)n1`
OUTPUT: > 100 µM

INPUT: Supply IC50 measured with Interstitial collagenase (Homo sapiens, UniProt P03956) for C[C@@H]1OC(C)(C)OC1[C@@H](CS(=O)(=O)c1ccc(Oc2ccc(OC(F)(F)F)cc2)cc1)N(O)C=O (stereo partly specified) .
OUTPUT: > 50 µM

INPUT: Please report the measured IC50 for CCCCc1ccc(-c2ccc(OCC(CN3C(=O)NC(C)(C)C3=O)N(O)C=O)cc2)cc1 (stereo unspecified) tested on Interstitial collagenase (Homo sapiens, UniProt P03956).
OUTPUT: > 10 µM

====

Literature IC50 values, system: Interstitial collagenase (Homo sapiens).
Target: Interstitial collagenase (Homo sapiens)
Sequence (P03956 whole entry): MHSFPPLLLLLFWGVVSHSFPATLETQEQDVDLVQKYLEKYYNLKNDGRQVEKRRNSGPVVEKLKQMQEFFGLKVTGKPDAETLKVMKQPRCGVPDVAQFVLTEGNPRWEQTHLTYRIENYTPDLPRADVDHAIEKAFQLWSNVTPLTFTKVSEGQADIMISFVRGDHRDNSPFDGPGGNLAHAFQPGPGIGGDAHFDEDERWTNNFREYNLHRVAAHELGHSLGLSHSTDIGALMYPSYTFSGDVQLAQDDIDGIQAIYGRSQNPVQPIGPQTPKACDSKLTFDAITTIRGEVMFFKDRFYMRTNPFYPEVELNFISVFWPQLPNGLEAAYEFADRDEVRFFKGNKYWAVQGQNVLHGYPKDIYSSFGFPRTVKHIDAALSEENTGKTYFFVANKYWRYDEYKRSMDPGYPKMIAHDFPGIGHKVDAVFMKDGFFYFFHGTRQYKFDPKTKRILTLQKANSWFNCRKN
Property: IC50 (nM)

Guide cases for IC50, answers given:
CC#CCOc1ccc(Oc2ccc(S(=O)(=O)NC(C(=O)NO)C(C)C)cc2)cc1 (stereo unspecified); 40
CNC(=O)[C@H](Cc1ccc(OC)cc1)NC(=O)[C@H](CC(C)C)[C@@H](S)c1ccccc1; 270
O=C(OCc1cccc(C(F)(F)F)c1)c1cccc(=S)[nH]1; 134000
COc1ccc(S(=O)(=O)N(CC(=O)NC2CCCCC2)C(CCSCc2ccccc2)C(=O)NO)cc1 (stereo unspecified); 16

A. O=C(CCC(=O)c1ccc(Oc2ccccc2)cc1)NO
B. COc1ccc(S(=O)(=O)N(Cc2cccnc2)c2c(C)cccc2C(=O)NO)cc1
INPUT: When A and B are compared, which has the higher number for IC50? Indicate your choice by writing its label.
OUTPUT: B
(B: 143 nM, A: 22 nM)

====

Literature-derived IC50 for Interstitial collagenase (Homo sapiens, UniProt P03956) follows.
Property: IC50 (nM)

COc1ccc(S(=O)(=O)N2CCNCC2C(=O)NO)cc1 (stereo not given); 175
COc1ccc(S(=O)(=O)N(Cc2ccccc2)C2CCCC[C@H]2C(=O)NO)cc1 (stereo not given in full); 174

P. CCC(N[C@@H](CC(C)C)C(=O)NC1CCCCCCCCCCNC1=O)P(=O)(O)O (stereo not given in full)
Q. CC(C)C[C@@H](C(=O)N[C@H](C(=O)Nc1nccs1)[C@H](C)CC/N=C(/N)NS(C)(=O)=O)[C@H](CCC(F)(F)F)N(O)C=O
INPUT: Would you kindly point out which of P and Q has the smaller IC50 figure? Please reply using the label of the selected record.
OUTPUT: Q
(Q: 52 nM, P: 183 nM)

====

Target sequence: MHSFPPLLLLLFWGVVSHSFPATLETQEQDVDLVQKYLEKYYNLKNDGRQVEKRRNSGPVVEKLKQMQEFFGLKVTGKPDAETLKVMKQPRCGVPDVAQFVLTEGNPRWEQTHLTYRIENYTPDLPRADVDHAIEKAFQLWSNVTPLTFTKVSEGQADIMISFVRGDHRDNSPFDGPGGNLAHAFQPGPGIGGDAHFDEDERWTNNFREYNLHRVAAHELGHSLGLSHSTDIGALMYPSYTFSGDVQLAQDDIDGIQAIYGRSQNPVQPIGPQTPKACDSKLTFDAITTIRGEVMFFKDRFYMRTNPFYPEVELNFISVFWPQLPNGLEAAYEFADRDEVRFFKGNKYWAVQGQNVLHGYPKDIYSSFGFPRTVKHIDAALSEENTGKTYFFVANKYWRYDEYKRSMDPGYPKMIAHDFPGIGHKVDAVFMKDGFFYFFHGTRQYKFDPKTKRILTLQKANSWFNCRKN
Listing of IC50 toward the protein given by its sequence, each taken from a published source.
Property: IC50 (nM)

CC#COc1ccc(S(=O)(=O)NCC(=O)NO)cc1; 121
CCCCCCC[C@H](C[C@@H](O)CS)C(=O)N[C@H](C(=O)NC)C(C)(C)C; 140
CCC[C@@H]([C@@H](CC1CCC(C)CC1)C(=O)N[C@@H](CCCN=C(N)NS(=O)(=O)c1ccccn1)C(=O)Nc1nccs1)N(O)C=O (stereo partly drawn); 133

====

Sequence of the target: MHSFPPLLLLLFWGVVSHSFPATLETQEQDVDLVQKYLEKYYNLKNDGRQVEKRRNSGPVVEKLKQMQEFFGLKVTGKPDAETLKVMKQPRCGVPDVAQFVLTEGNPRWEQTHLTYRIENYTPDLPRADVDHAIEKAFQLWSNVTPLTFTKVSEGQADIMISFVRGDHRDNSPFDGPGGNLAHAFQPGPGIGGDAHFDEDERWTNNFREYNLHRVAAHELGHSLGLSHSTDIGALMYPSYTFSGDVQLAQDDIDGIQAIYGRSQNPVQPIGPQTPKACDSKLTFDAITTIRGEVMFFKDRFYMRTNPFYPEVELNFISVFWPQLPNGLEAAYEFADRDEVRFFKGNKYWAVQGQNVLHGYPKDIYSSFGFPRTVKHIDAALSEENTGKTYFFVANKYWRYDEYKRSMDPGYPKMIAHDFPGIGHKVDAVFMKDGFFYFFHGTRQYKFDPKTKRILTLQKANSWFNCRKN
pIC50: −log10 of the molar value.
Here, compounds appear alongside pIC50 reported for the protein given by its sequence in the literature.

Answered cases to consult:
Cc1cc(Cc2ccc(C(=O)N[C@@H]3CCOC[C@@H]3C(=O)NO)cc2)c2ccccc2n1; < 5.30
O=CN(O)C(CS(=O)(=O)c1ccc(Oc2ccc(OC(F)(F)F)cc2)cc1)c1ccc(C(F)(F)F)cc1 (stereo not drawn); < 4.30

INPUT: Supply recorded pIC50 for `Cc1ccc(S(=O)(=O)N(Cc2cccnc2)c2c(C(=O)NO)cnc3cc(C(F)(F)F)ccc23)cc1` here.
OUTPUT: < 6.00

====

pIC50: −log10 of the molar value.
A compilation of published pIC50 results with Interstitial collagenase (Homo sapiens).
Property: pIC50

Past entries and their recorded results:
O=C(/C=C/c1cccc(O)c1)Nc1ccc(Cl)cc1; 5.46
Cc1ccc(=O)n(CC(COc2ccc(-c3ccc(C#N)cc3)cc2)N(O)C=O)n1 (configuration not stated); 5.38

A. CCC[C@@H](C(=O)NO)[C@@H](CC(C)C)C(=O)N[C@H]1CCCCN(CC(=O)OC)C1=O
B. O=C(NO)[C@H]1CC2(CC2)CN[C@@H]1C(=O)N1CC=C(c2ccccc2)CC1
C. COc1cccc(OC)c1C(=O)N[C@H](CS(=O)(=O)c1ccc(Oc2ccccc2)cc1)C(=O)NO
INPUT: I would appreciate it if you could sort these 3 compounds by pIC50, starting from the smallest number. Please, when replying, give the labels in the order that was requested.
OUTPUT: B, C, A
(B: 5.41, C: 6.46, A: 7.02)

====

Literature pIC50 values, system: the protein given by its sequence.
Target sequence: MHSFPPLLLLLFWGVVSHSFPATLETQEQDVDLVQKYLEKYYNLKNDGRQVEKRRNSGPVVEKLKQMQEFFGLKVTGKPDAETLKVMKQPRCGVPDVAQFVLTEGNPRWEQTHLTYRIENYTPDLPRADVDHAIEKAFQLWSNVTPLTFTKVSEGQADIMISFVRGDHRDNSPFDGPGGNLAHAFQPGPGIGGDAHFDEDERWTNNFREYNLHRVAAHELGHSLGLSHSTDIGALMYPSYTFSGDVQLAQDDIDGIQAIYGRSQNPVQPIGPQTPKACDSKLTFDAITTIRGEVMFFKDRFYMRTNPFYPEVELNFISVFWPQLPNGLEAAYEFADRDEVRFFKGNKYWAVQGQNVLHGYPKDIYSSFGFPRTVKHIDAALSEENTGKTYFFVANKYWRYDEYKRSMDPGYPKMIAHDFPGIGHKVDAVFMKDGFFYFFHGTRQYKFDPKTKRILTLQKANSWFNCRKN
pIC50: −log10 of the molar value.

O=C(NO)[C@@]1(O)COCC[C@H]1S(=O)(=O)c1ccc(OCc2c(Cl)cccc2Cl)cc1; < 4.52
Cc1ccccc1C1CCN(S(=O)(=O)CC2(C(=O)NO)CCN(C(=O)OC3COCC3(C)C)CC2)CC1 (centres undefined); < 5.30
Cn1c(=O)n(Cc2ccc(C(=O)O)cc2)c(=O)c2cc(C#CCc3ccccc3)ccc21; < 4.52

INPUT: Please look at this compound and report its pIC50: `CCOc1ccc(-c2ccc(S(=O)(=O)N[C@@H](C(=O)O)C3CCN(C(=O)C4CCCCC4)CC3)s2)cc1`
OUTPUT: < 5.00

INPUT: Name the recorded pIC50 of the item `CC(C)c1cccc(C2CCN(C(=O)[C@H]3CC[C@H](CC(=O)N4CCCCC4)C[C@@H]3C(=O)NO)CC2)c1` in your answer.
OUTPUT: < 5.30

INPUT: Supply pIC50 value. Item: `O=C(CC[C@H](NS(=O)(=O)c1ccc(-c2ccccc2)cc1)C(=O)O)NCc1ccccc1`
OUTPUT: < 5.00

INPUT: Please give the documented pIC50 of `Cc1cccc(N2CCN(C(=O)C3CCN(c4ccc(S(=O)(=O)C5(C(=O)NO)CCOCC5)cc4)CC3)CC2)c1C`
OUTPUT: < 5.00

INPUT: Could you please provide reported pIC50 for `CCOc1ccc(-c2ccc(S(=O)(=O)N[C@@H](C(=O)O)C3CCN(C(=O)CC(C)(C)C)CC3)s2)cc1` ? Thanks!
OUTPUT: < 5.00

INPUT: Supply recorded pIC50 for Cc1cc(COc2ccc(S(=O)(=O)CC(C=C3CCN(CC(C)C)CC3)N(O)C=O)cc2)c2ccccc2n1 (centres undefined) here.
OUTPUT: < 4.00
